B1: CPEB3 Ribozyme (parent)
chain: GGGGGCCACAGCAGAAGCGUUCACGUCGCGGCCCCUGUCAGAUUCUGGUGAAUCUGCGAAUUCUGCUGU

variants of: B1; assay: self-cleavage, relative activity (ratio to wild type); higher = more cleavage; co-transcriptional
# label = bin(measured self-cleavage), where bins are band A = under 0.2, band B = from 0.2 up to 0.7, band C = 0.7 and over

INSERT INTO assay_data (mutation_label, category_label) VALUES
  ('A16G A60C', 'band B');

Prompt: Bin? G25U A40C
Completion: band A

Prompt: Class (by measured self-cleavage) for A60C U62G
Completion: band B

Prompt: Sort G2A G17U into one of the categories.
Completion: band A

Prompt: Which category fits this record: C12U A59C
Completion: band B

Prompt: Hi, small favor: classify A23C U69A by its self-cleavage when you get a moment.
Completion: band C

Prompt: Please let me know in which category the item U21C A60G belongs.
Completion: band B

Prompt: Which self-cleavage category applies to G4A C22U here?
Completion: band A

Prompt: Form: Item = A23U G25A ; Class = ?
Completion: band B
